tested system: Peroxisome proliferator-activated receptor gamma (Homo sapiens) (UniProt P37231)
Sequence (P37231 whole entry, looked up): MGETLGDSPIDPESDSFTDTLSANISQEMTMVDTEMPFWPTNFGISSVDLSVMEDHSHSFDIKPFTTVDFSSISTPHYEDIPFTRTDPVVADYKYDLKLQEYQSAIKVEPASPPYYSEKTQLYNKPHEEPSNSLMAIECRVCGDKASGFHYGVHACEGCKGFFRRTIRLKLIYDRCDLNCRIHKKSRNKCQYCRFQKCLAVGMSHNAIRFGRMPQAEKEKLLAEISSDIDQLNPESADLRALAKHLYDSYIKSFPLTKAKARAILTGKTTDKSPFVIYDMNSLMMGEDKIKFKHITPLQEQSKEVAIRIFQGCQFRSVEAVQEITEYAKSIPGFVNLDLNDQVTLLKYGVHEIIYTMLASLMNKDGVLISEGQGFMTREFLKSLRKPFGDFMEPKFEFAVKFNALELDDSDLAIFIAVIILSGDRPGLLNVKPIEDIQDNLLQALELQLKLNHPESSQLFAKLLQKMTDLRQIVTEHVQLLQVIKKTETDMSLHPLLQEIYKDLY
assay method text: OT_PPARg_PPARgSRC1_1440: Odyssey Thera (OT) 24-hour Protein-Complementation Assay for Peroxisome Proliferator-activated Receptor Gamma/ SRC-1 Co-activator (AID 2283388);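 also: nuclear to cytoplasmic ratio of reconstituted Venus YFP fluorescence in fixed imaged cells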
Active and inactive are the calls of the source. The calls were made as follows: active = hit-call score of the fitted dose curve at least 0.9, where 1 is the maximum; inconclusive = response in the unintended direction; inactive = score below 0.9.
Possible outcomes: t (active), f (inactive)

[[record]]
compound = "C=CCOc1nc(OCC=C)nc(OCC=C)n1"
class_assignment = "f"

[[record]]
compound = "NCCNCCN"
class_assignment = "f"

[[record]]
compound = "COc1cc(C(C)(C)C)c(O)c(C(C)(C)C)c1"
class_assignment = "f"

[[record]]
compound = "CCCCCCCCCCCCCCCC(=O)O"
class_assignment = "f"

[[record]]
compound = "BrC1CCC(Br)C(Br)CCC(Br)C(Br)CCC1Br (stereo not given)"
class_assignment = "f"

[[record]]
compound = "C=CC[N+](C)(C)CC=C"
class_assignment = "f"

[[record]]
compound = "C=CC(C)(O)CCC=C(C)CCC=C(C)C (stereo not given)"
class_assignment = "f"

[[record]]
compound = "C=C(C)C(=O)O"
class_assignment = "f"

[[record]]
compound = "O=C(O)Cc1cccc2ccccc12"
class_assignment = "f"

[[record]]
compound = "CC(=O)C=CC1=C(C)CCCC1(C)C"
class_assignment = "f"

[[record]]
compound = "O=C1NC(=O)c2ccccc21"
class_assignment = "f"

[[record]]
compound = "CC(=O)OCCOC(C)=O"
class_assignment = "f"

[[record]]
compound = "CC(C)(C#N)c1cc(Cn2cncn2)cc(C(C)(C)C#N)c1"
class_assignment = "f"

[[record]]
compound = "CC(C)=CCCC(C)=CCCC(C)=CCO"
class_assignment = "f"

[[record]]
compound = "NC(=O)NC1NC(=O)NC1=O (stereo not given)"
class_assignment = "f"

[[record]]
compound = "C=O"
class_assignment = "f"

[[record]]
compound = "CCCCCCCCCCCCCCCCCC(=O)OCC(CC)CCCC (stereo not given)"
class_assignment = "f"

[[record]]
compound = "O=C1C(c2[nH]c3ccc(S(=O)(=O)O)cc3c2O)=Nc2ccc(S(=O)(=O)O)cc21"
class_assignment = "f"

[[record]]
compound = "c1ccc2[nH]ccc2c1"
class_assignment = "f"

[[record]]
compound = "CCCCCCCCCCC(CO)CCCCCCCC (stereo not given)"
class_assignment = "f"

[[record]]
compound = "O=C(Oc1ccccc1)c1ccc(O)cc1"
class_assignment = "f"

[[record]]
compound = "CCCCCCCCC"
class_assignment = "f"

[[record]]
compound = "CC(C)c1cccc(O)c1"
class_assignment = "f"

[[record]]
compound = "Cc1ccc(S)cc1"
class_assignment = "f"

[[record]]
compound = "CCCC1CCC(=O)O1 (stereo not given)"
class_assignment = "f"

[[record]]
compound = "CCN(CC)c1ccc2c(-c3ccccc3C(=O)O)c3ccc(=[N+](CC)CC)cc-3oc2c1"
class_assignment = "t"

[[record]]
compound = "CCCCCOC(=O)CCC"
class_assignment = "f"

[[record]]
compound = "O=c1cc(-c2ccccc2)oc2cc(O)cc(O)c12"
class_assignment = "f"

[[record]]
compound = "O=Nc1ccc(Nc2ccccc2)cc1"
class_assignment = "f"

[[record]]
compound = "CCN(CC)CCOC(=O)c1ccc(N)cc1"
class_assignment = "f"

[[record]]
compound = "O=C(Cl)c1cccc(C(=O)Cl)c1"
class_assignment = "f"

[[record]]
compound = "Cc1ccc(C(C)C)cc1O"
class_assignment = "f"

[[record]]
compound = "CCC(=O)/C=C/C1C(C)=CCCC1(C)C (stereo not given)"
class_assignment = "f"

[[record]]
compound = "CC(C)C[C@H]1C(=O)N2CCC[C@H]2[C@]2(O)O[C@](NC(=O)[C@@H]3C=C4c5cccc6[nH]c(Br)c(c56)C[C@H]4N(C)C3)(C(C)C)C(=O)N12"
class_assignment = "f"

[[record]]
compound = "CCCOCC(C)O (stereo not given)"
class_assignment = "f"

[[record]]
compound = "CCCCCCCCCCCCCC(=O)O"
class_assignment = "f"

[[record]]
compound = "CCCCC[Si](OCC)(OCC)OCC"
class_assignment = "f"

[[record]]
compound = "COc1ccc(O)cc1"
class_assignment = "f"

[[record]]
compound = "OC1OC[C@@H](O)[C@H](O)[C@H]1O (stereo not given in full)"
class_assignment = "f"

[[record]]
compound = "C[Si](O[Si](C)(C)C)O[Si](C)(C)C"
class_assignment = "f"


* * *

tested system: Estrogen receptor (Homo sapiens) (UniProt P03372)
Sequence (P03372 whole entry, looked up): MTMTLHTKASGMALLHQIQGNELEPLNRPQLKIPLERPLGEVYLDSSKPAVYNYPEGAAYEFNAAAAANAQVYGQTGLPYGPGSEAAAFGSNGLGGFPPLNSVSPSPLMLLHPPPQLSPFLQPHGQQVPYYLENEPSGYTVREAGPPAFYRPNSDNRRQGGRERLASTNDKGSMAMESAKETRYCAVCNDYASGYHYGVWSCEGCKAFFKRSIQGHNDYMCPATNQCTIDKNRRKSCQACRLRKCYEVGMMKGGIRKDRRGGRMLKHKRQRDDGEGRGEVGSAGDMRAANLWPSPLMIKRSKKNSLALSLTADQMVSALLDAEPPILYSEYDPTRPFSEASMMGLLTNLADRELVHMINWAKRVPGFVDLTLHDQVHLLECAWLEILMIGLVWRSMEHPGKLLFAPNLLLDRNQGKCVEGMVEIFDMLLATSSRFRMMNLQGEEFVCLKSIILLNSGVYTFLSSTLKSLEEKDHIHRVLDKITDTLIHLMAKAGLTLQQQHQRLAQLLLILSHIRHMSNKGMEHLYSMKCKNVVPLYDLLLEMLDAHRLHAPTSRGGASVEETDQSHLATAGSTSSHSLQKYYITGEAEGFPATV
assay method text: ATG_ERa_TRANS: Attagene TRANS-FACTORIAL HepG2 Assay for human Estrogen Receptor alpha (ERa) (AID 2282970)
condition label: HepG2 Attagene TRANS ERa GAL4 reporter, mRNA
Records with an inconclusive call do not appear. Activity calls are given as the source filed them. Rule for the calls: active = hit-call score of the fitted dose curve at least 0.9, where 1 is the maximum; inconclusive = response in the unintended direction; inactive = score below 0.9.
Labels: true for active, false for inactive

[[record]]
compound = "NC(=O)c1ccccc1Cl"
class_assignment = "false"

[[record]]
compound = "CCCCCCCCCC=O"
class_assignment = "false"

[[record]]
compound = "O=Cc1ccc(F)cc1"
class_assignment = "false"

[[record]]
compound = "Cc1cc(C2(c3cc(C)c(O)cc3C)OS(=O)(=O)c3ccccc32)c(C)cc1O"
class_assignment = "true"

[[record]]
compound = "O=C1c2ccccc2C(=O)N1SC1CCCCC1"
class_assignment = "true"

[[record]]
compound = "CC(C)=CCO"
class_assignment = "false"

[[record]]
compound = "C=C(C)C(=O)OCc1ccccc1"
class_assignment = "false"

[[record]]
compound = "COC(=O)C1=C(C)NC(C)=C(C(=O)OCCN(C)Cc2ccccc2)C1c1cccc([N+](=O)[O-])c1 (stereo unspecified)"
class_assignment = "false"

[[record]]
compound = "NCCOCCO"
class_assignment = "false"

[[record]]
compound = "CC(C)(N)CO"
class_assignment = "false"

[[record]]
compound = "COc1ccc(OC)c(OC)c1"
class_assignment = "false"

[[record]]
compound = "CC(C)(C)c1n[nH]c(=S)n(N)c1=O"
class_assignment = "false"

[[record]]
compound = "O=C(O)CCSCCC(=O)O"
class_assignment = "false"

[[record]]
compound = "OCCOCCOCCOCCO"
class_assignment = "false"

[[record]]
compound = "C[C@]12CC[C@H]3[C@@H](CCC4=CC(=O)CC[C@@]43C)[C@@H]1CC[C@@H]2C(=O)CO"
class_assignment = "true"

[[record]]
compound = "O=C(O)CCCCCCCCCCC(=O)O"
class_assignment = "false"


* * *

Read-out: E-selectin (Homo sapiens)
assay method text: BSK_SAg_Eselectin: BioMAP Diversity Plus: SAg Assay for Eselectin Biomarker Activity (AID 2283091)
condition label: primary human HUVEC with PBMC; actives raise or lower the signal
The source made the active and inactive calls. How the source made its calls: active means hit-call score of the fitted dose curve at least 0.9, where 1 is the maximum; inactive means score below 0.9.
measured endpoint: AC50

[[record]]
molecule = "O=C1CCCCCCCCCCCCCCO1"
assay_value = "inactive"

[[record]]
molecule = "O=C(O)C[C@H](O)C[C@H](O)/C=C/c1c(C2CC2)nc2ccccc2c1-c1ccc(F)cc1"
assay_value = "0.00197 µM (active)"

[[record]]
molecule = "CCn1c2ccccc2c2cc(N)ccc21"
assay_value = "inactive"

[[record]]
molecule = "CC1COc2ccccc2N1C(=O)C(Cl)Cl (configuration not stated)"
assay_value = "13.3 µM (active)"

[[record]]
molecule = "CN(CCOc1ccc(CC2SC(=O)NC2=O)cc1)c1ccccn1 (configuration not stated)"
assay_value = "20 µM (active)"

[[record]]
molecule = "NCCNCCN"
assay_value = "inactive"

[[record]]
molecule = "CCCCC(CC)COC(=O)/C=C\\C(=O)OCC(CC)CCCC (configuration not stated)"
assay_value = "inactive"

[[record]]
molecule = "CC(=O)/C=C/C1=C(C)CCCC1(C)C"
assay_value = "inactive"

[[record]]
molecule = "N#Cc1ccc(CC(=NNC(=O)Nc2ccc(OC(F)(F)F)cc2)c2cccc(C(F)(F)F)c2)cc1"
assay_value = "inactive"

[[record]]
molecule = "CC(C)c1ccc(C(C)C)cc1"
assay_value = "inactive"

[[record]]
molecule = "CC(=O)O[C@]1(C(C)=O)CC[C@H]2[C@@H]3C[C@H](C)C4=CC(=O)CC[C@]4(C)[C@H]3CC[C@@]21C"
assay_value = "inactive"

[[record]]
molecule = "O=C(O)c1cn(-c2ccc(F)cc2)c2cc(N3CCNCC3)c(F)cc2c1=O"
assay_value = "inactive"

[[record]]
molecule = "Cc1ccc2n[nH]nc2c1"
assay_value = "inactive"

[[record]]
molecule = "c1ccc2c(c1)c1cccc3ccc4cccc2c4c31"
assay_value = "inactive"

[[record]]
molecule = "COC(=O)c1ccc(C)cc1"
assay_value = "inactive"

[[record]]
molecule = "CCCCC(CC)COCCC#N (configuration not stated)"
assay_value = "inactive"

[[record]]
molecule = "CC(=O)OCCC(C)CC(C)(C)C (configuration not stated)"
assay_value = "inactive"

[[record]]
molecule = "O=[N+]([O-])c1cc(C(F)(F)F)ccc1Cl"
assay_value = "inactive"

[[record]]
molecule = "Cc1ccc(O)c(C(C)(C)C)c1"
assay_value = "37.5 µM (active)"

[[record]]
molecule = "CC1CCC(C(C)CS)CC1S (configuration not stated)"
assay_value = "30.8 µM (active)"

[[record]]
molecule = "C=CCOC(=O)CCC1CCCCC1"
assay_value = "inactive"

[[record]]
molecule = "c1ccc2sc(SN(C3CCCCC3)C3CCCCC3)nc2c1"
assay_value = "inactive"

[[record]]
molecule = "O=C=NC1CCC(CC2CCC(N=C=O)CC2)CC1 (configuration not stated)"
assay_value = "inactive"

[[record]]
molecule = "C=C(C)C(=O)O[C@H]1C[C@@H]2CC[C@@]1(C)C2(C)C"
assay_value = "34 µM (active)"

[[record]]
molecule = "CC(=O)Nc1ccccc1O"
assay_value = "inactive"

[[record]]
molecule = "O=P(c1ccccc1)(c1ccccc1)c1ccccc1"
assay_value = "inactive"

[[record]]
molecule = "CCCCCCCCCCCCCCCCCC(=O)OCC(CC)CCCC (configuration not stated)"
assay_value = "inactive"

[[record]]
molecule = "CC[Si](OC(C)=O)(OC(C)=O)OC(C)=O"
assay_value = "inactive"

[[record]]
molecule = "OC1OC[C@@H](O)[C@H](O)[C@H]1O (some centres not stated)"
assay_value = "inactive"

[[record]]
molecule = "O=C(O)c1ccc([N+](=O)[O-])cc1"
assay_value = "inactive"

[[record]]
molecule = "CCCCC/C=C/C=C/C=O"
assay_value = "28.3 µM (active)"

[[record]]
molecule = "CC(C)(COC(=O)c1ccccc1)COC(=O)c1ccccc1"
assay_value = "28.8 µM (active)"


All figures here come from PubChem BioAssay (EPA / NIEHS).
